Origin of values: paper PMC7765375

# Test system: HO-1
# test details: HO-1 expression by ELISA in LX-2 cell lysates
# Type: cell-based, human
# condition parameters: Homo sapiens, LX-2, 24 h, 10 μM, 24 h, LX-2 cells lysate, vs control group, mean ± SD of triplicate
metric: fold induction at 10 µM

* O=C(/C=C/C(=O)NCc1ccccc1)NCc1ccccc1 [Compound 1m, (E)-N, N’-Diphenylmethyl-2-butenediamide] | 13.8
* COc1ccc(OC(=O)/C=C/C(=O)Oc2ccc(OC)cc2)cc1 | 0.9
* Cc1ccc(OC(=O)/C=C/C(=O)Oc2ccc(C)cc2)cc1 | 3.76
* O=C(/C=C/C(=O)OCCc1ccccc1)OCCc1ccccc1 | 8.47
